Hello, the source for this data is PubChem BioAssay (NCI), in case you need it.

Recorded TGI by entry
test system: RPMI-8226 leukemia; test: NCI tumour cell line growth inhibition, 48 h
Answer format: numeric, µM implied, no suffix.

[
  {
    "COMPOUND": "O=[N+]([O-])C(=C(N1CCCCC1)N1CCCCC1)/C(Cl)=C(\\Cl)Br",
    "UNITS_SYMBOL": "µM",
    "TGI": 44.2
  },
  {
    "COMPOUND": "CCCCCCCCCC[C@H](O)[C@H]1CC[C@H]([C@H]2CC[C@H]([C@H](O)CC[C@H](O)CCCCCCC[C@@H](O)CC3=C[C@H](C)OC3=O)O2)O1",
    "UNITS_SYMBOL": "µM",
    "TGI": 10.5
  }
]

// next entry
Request: Could you share what TGI was measured for CC/C=C\C=C/C(=O)N/C=C/CC1Cc2cccc(O)c2C(=O)O1 (centres undefined) , tested on RPMI-8226 leukemia?
Response: 56.4
